FYI, the data here is from patent US10301267B2.

# System tested: His6-tagged FGFR kinase domain (Homo sapiens, UniProt P11362, C488A/C584S)
# Construct: FGFR kinase domain (amino acids 458-765, C488A, C584S) N-terminally fused to a His6-tag and TEV cleavage site; His6-tag plus linker and TEV cleavage site (printed as X1); made in house
# Sequence (P11362 458-765 C488A/C584S): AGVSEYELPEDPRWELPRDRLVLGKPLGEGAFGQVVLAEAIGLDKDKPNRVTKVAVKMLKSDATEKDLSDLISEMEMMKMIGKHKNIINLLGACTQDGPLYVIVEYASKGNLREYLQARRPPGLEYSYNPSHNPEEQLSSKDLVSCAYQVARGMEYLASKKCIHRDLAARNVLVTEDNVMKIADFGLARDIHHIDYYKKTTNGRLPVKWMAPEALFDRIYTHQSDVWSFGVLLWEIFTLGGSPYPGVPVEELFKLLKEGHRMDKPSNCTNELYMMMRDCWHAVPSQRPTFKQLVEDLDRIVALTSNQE
# Assay text: FGFR Kinase assay - Elisa
# Type: biochemical
# Cond: FGFR inhibition test, Elisa; read-out: Activity class (FGFR Kinase assay - Elisa)
Listing: IC50 of selected molecules
Measured parameter: IC50

Molecule | Reported measurement
COCCOc1cccc(CCc2cc(NC(=O)c3ccc(N4CCN(C)CC4)cc3)[nH]n2)c1 [Example 6] | < 300 nM
CCNc1ccc(C(=O)Nc2cc(CCc3cccc(OC)c3)n[nH]2)cn1 [Example 18] | 300 to 1000 nM
COc1cc(CCc2cc(NC(=O)c3ccc(N4CCOCC4)cc3)[nH]n2)cc(OC)c1 [Example 4] | < 300 nM
CN1CCN(c2ccc(C(=O)Nc3cc(CCc4ccco4)n[nH]3)cc2)CC1 [Example 8] | < 300 nM
COc1cc(COc2cc(NC(=O)c3cnc(N4CCN(C)CC4)cn3)[nH]n2)cc(OC)c1 [Example 20] | < 300 nM
C#CCNc1ccc(C(=O)Nc2cc(CCc3cccc(OC)c3)n[nH]2)nc1 [Example 17] | 300 to 1000 nM
